test system: MCF-7; experiment: NCI-60 one-dose SRB screen (Breast Cancer); format: cell-based; settings: Homo sapiens, MCF7, single dose 10 µM, 48 h, read-out: Growth inhibition percent (GI %)
Answer NOT MET if inhibition at 10 µM is under 50%, and MET if it is 50% or more.

> print(dat)
                                   molecule  qualitative.label
1  NS(=O)(=O)c1ccc(NC(=O)COC(=O)c2cn(-c3ccc(S(N)(=O)=O)cc3)nc2-c2ccc(Br)cc2)cc1 [Compound 4d]                MET
2  Cc1ccc(-c2nn(-c3ccc(S(N)(=O)=O)cc3)cc2-c2nnc(N)s2)cc1 [Compound 10]            NOT MET
3  NS(=O)(=O)c1ccc(-n2cc(C(=O)OCC(=O)Nc3nnc(S(N)(=O)=O)s3)c(-c3ccccc3)n2)cc1 [Compound 6a]            NOT MET
4  Cc1ccc(-c2nn(-c3ccc(S(N)(=O)=O)cc3)cc2C(=O)OCC(=O)Nc2ccc(S(N)(=O)=O)cc2)cc1 [Compound 4b]            NOT MET
5  CS(=O)(=O)c1ccc(-c2nn(-c3ccc(S(N)(=O)=O)cc3)cc2C(=O)NNC(N)=S)cc1 [Compound 9e]            NOT MET
6  COc1ccc(-c2nn(-c3ccc(S(N)(=O)=O)cc3)cc2C(=O)NNC(N)=S)cc1 [Compound 9c]            NOT MET
7  Cc1ccc(-c2nn(-c3ccc(S(N)(=O)=O)cc3)cc2C(=O)NNC(N)=S)cc1 [Compound 9b]            NOT MET
8  CCOC(=O)c1ccc(NC(=O)COC(=O)c2cn(-c3ccc(S(N)(=O)=O)cc3)nc2-c2ccccc2)cc1 [Compound 5a]                MET
